I'd be grateful if you could share measured log10(IC50) for these entries.
System: A549
Experiment: Antiproliferative activity against human A549 cells after 72 hrs by MTT assay
Type: functional, cell-based
Details: A549, 72 h
In plain terms, each number is the log10 of measured IC50 in µM.

Query: GET /values?readout=log10(IC50)&item= Clc1ccc(-n2cc(COc3ccc(-c4nc5ccc(Cl)cc5[nH]4)cc3)nn2)cc1
Result: 0.46

Query: GET /values?readout=log10(IC50)&item= N=C(N)c1ccc2[nH]c(-c3ccc(OCc4cn(-c5ccccc5)nn4)cc3)nc2c1
Result: 1.73

Query: GET /values?readout=log10(IC50)&item= N=C(N)c1ccc2[nH]c(-c3ccc(OCc4cn(-c5ccc(C(F)(F)F)cc5)nn4)cc3)nc2c1
Result: -0.08

Query: GET /values?readout=log10(IC50)&item= Clc1ccc(-n2cc(-c3nc4cc(C5=NCCN5)ccc4[nH]3)nn2)cc1
Result: 0.59

Query: GET /values?readout=log10(IC50)&item= N=C(N)c1ccc2[nH]c(-c3ccc(OCc4cn(-c5ccc(F)cc5)nn4)cc3)nc2c1
Result: 1.91

Query: GET /values?readout=log10(IC50)&item= CC(C)NC(=N)c1ccc2[nH]c(-c3cn(-c4ccc(Cl)cc4)nn3)nc2c1
Result: 1.43

Query: GET /values?readout=log10(IC50)&item= FC(F)(F)c1ccc(-n2cc(COc3ccc(-c4nc5cc(C6=NCCN6)ccc5[nH]4)cc3)nn2)cc1
Result: -0.23

----------
Test system: A549
Assay: Antiproliferative activity against human A549 cells after 72 hrs by MTT assay
Assay type: functional, cell-based
Conditions: A549, 72 h
Consider the cut-off 8 µM. If the recorded IC50 is strictly smaller, the label is True; if not, the label is False.

Query: Hi there! Is IC50 for N=C(N)c1ccc2[nH]c(-c3ccc(OCc4cn(Cc5ccccc5)nn4)cc3)nc2c1 below 8 µM, do you know?
Result: False

Query: Hi there! Is IC50 for CC(C)NC(=N)c1ccc2[nH]c(-c3ccc(OCc4cn(-c5ccc(I)cc5)nn4)cc3)nc2c1 below 8 µM, do you know?
Result: True

Query: Hi there! Is IC50 for Cl.c1ccc(Cn2cc(COc3ccc(-c4nc5cc(C6=NCCN6)ccc5[nH]4)cc3)nn2)cc1 below 8 µM, do you know?
Result: True

Query: Hi there! Is IC50 for CC(C)NC(=N)c1ccc2[nH]c(-c3ccc(OCc4cn(-c5ccc(F)cc5)nn4)cc3)nc2c1 below 8 µM, do you know?
Result: False

----------
Test system: HeLa
Assay: Antiproliferative activity against human HeLa cells after 72 hrs by MTT assay
Format: functional, cell-based
Measurement Type: pIC50
pIC50 here is simply -log10 of the concentration when that concentration is written in mol/L.

Query: Can you look up pIC50 on HeLa for N=C(N)c1ccc2[nH]c(-c3ccc(OCc4cn(-c5ccccc5)nn4)cc3)nc2c1 ?
Result: 4.72

Query: Can you look up pIC50 on HeLa for CC(C)NC(=N)c1ccc2[nH]c(-c3ccc(OCc4cn(-c5ccc(Cl)cc5)nn4)cc3)nc2c1.Cl ?
Result: 4.76

Query: Can you look up pIC50 on HeLa for N=C(N)c1ccc2[nH]c(-c3ccc(OCc4cn(-c5ccc(Cl)cc5)nn4)cc3)nc2c1 ?
Result: 6.10

Query: Can you look up pIC50 on HeLa for Clc1ccc(-n2cc(COc3ccc(-c4nc5cc(C6=NCCN6)ccc5[nH]4)cc3)nn2)cc1 ?
Result: 6.66

Query: Can you look up pIC50 on HeLa for FC(F)(F)c1ccc(-n2cc(COc3ccc(-c4nc5cc(C6=NCCN6)ccc5[nH]4)cc3)nn2)cc1 ?
Result: 5.57

Query: Can you look up pIC50 on HeLa for Clc1ccc(-n2cc(COc3ccc(-c4nc5ccc(Cl)cc5[nH]4)cc3)nn2)cc1 ?
Result: 5.45

Query: Can you look up pIC50 on HeLa for Cl.c1ccc(Cn2cc(COc3ccc(-c4nc5cc(C6=NCCN6)ccc5[nH]4)cc3)nn2)cc1 ?
Result: 5.18

Query: Can you look up pIC50 on HeLa for CC(C)NC(=N)c1ccc2[nH]c(-c3ccc(OCc4cn(-c5ccc(F)cc5)nn4)cc3)nc2c1 ?
Result: 6.23

Query: Can you look up pIC50 on HeLa for N=C(N)c1ccc2[nH]c(-c3ccc(OCc4cn(-c5ccc(F)cc5)nn4)cc3)nc2c1 ?
Result: 5.13

Query: Can you look up pIC50 on HeLa for CC(C)NC(=N)c1ccc2[nH]c(-c3cn(-c4ccc(Cl)cc4)nn3)nc2c1 ?
Result: 6.07
